For each record, write down the corresponding IC50.
System: HeLa
Test: Antitumor activity against human cervical carcinoma HeLa cell line
Assay type: functional, cell-based
Conditions: Homo sapiens, HeLa; read-out: IC50
Answers are plain numbers, in µg/mL.

Compound	IC50, µg/mL
CC1(C)CCC[C@]2(C)c3cc(OCc4ccc(Cl)cc4)c(O)cc3CC[C@H]12	42.2
COc1cc2c(cc1OC)[C@@]1(C)CCCC(C)(C)[C@H]1CC2	13.2

Record IC50 per entry; entries follow.
1. CC1(C)CCC[C@]2(C)c3cc(O)c(O)cc3CC[C@@H]12 (stereo in doubt; 1)
2. CC1(C)CCC[C@]2(C)c3cc(O)c(O)cc3C(=O)C[C@@H]12
3. COc1cc2c(cc1OC)[C@@]1(C)CCCC(C)(C)[C@@H]1CC2
4. COc1cc2c(cc1OC)[C@@]1(C)CCCC(C)(C)[C@H]1CC2=O
5. COc1cc2c(cc1OC)[C@@]1(C)CCCC(C)(C)[C@H]1C(=O)C2=O
6. COc1cc2c(cc1OC)[C@@]1(C)CCCC(C)(C)[C@@H]1CC2=O
7. CC1(C)CCC[C@]2(C)c3cc(O)c(O)cc3C(=O)C[C@H]12
8. CC1(C)CCC[C@]2(C)c3cc(O)c(OCc4cccc([N+](=O)[O-])c4)cc3CC[C@H]12

Response:
24.3
27.7
41.5
12.7
16.1
25.7
17.6
18.6

Record IC50 per entry; entries follow.
1. CC1(C)CCC[C@]2(C)c3cc(O)c(O)cc3CC[C@H]12
2. CC1(C)CCC[C@]2(C)c3cc(O)c(O)cc3C(=O)C(=O)[C@H]12
3. CC1(C)CCC[C@]2(C)c3cc(OCc4ccccc4F)c(O)cc3CC[C@H]12

Response:
1. 10.9
2. 18
3. 15.3
